Sourced from ChEMBL document CHEMBL5608113

# Test system: Colon cancer organoid
# test_protocol: Targeting of F14 CAF-induced therapy resistance in O23 CRC organoid-stroma co-culture. Cell viability is reported with Gefitinib.
# Type: functional, Homo sapiens
# conditions_used: Homo sapiens, Concentration 10 uM; read-out: Cell Viability
Exercise: state measured viability at 10 µM for each of the compounds provided.
Could you write the number and then its unit?

Data request, read-out viability at 10 µM, for CN(C)CCCOc1ccc(-c2cc(NCCCn3cccn3)nc(S(C)(=O)=O)n2)cc1
1.76%

One more compound: COc1ccc2c(c1)O[C@H](c1ccc(OC)c(OC)c1)C[C@@H]2NC(=O)C1(c2ccc3c(c2)OC(F)(F)O3)CC1
48.5%

Please answer likewise for Cc1ccc(-c2cnc([C@@]3(O)CC[C@H](C(=O)O)C(C)(C)C3)s2)cc1Nc1cccc(C(F)(F)F)n1
51.3%

Moving on to the next compound: c1ccc(C2CCN(c3cnc4c(N5CCOCC5)nccn34)CC2)cc1
136%

Subsequent entry: O=C(Nc1cccnn1)N1CC(C/C=C/c2cncc(Oc3ccc(C(F)(F)F)cn3)n2)C1
50.3%

Next compound: CCCOc1ccn2c(C(C)=O)cc(-c3ccccc3S(C)(=O)=O)c2c1
65.2%

Next compound up: C[C@H]1CCCN1Cc1nc2cc(NC(=O)c3ccc4cnccc4c3)ccc2[nH]1
26.6%

What would you report for O=C(/C=C/N1C[C@H]2C[C@@H]1CN2c1ccccn1)c1ccccc1O ?
38.6%

Please do the same for Cc1cc(NC(=O)c2cccc(S(F)(F)(F)(F)F)c2)cc(-n2ccn3nc(-c4cccnc4)cc23)c1 as well.
65%

Same read-out for COc1cccc(CNC(=O)c2nc3scc(CN(C)Cc4ccccc4)c3c(=O)[nH]2)c1 [T-26f] ?
45.7%

Also check COc1cc(C#N)ccc1S(=O)(=O)Nc1ccc2c(c1)cc(C)c(=O)n2C
86%

Same read-out for COc1cc(C(=O)N2CC[C@@H](O)[C@@H](N)C2)cc2nc(-c3cc4ccccc4n3CC3CC3)n(C)c12 ?
73.5%

How about Cc1cnc(-c2cc(Cl)ccc2F)cc1-n1c(=O)n(CC(N)=O)c2ccccc21 ?
94.6%

COc1cc(-c2cn([C@H]3CCc4ccccc4N(CC(F)(F)F)C3=O)nn2)ccc1-n1ccc(C)n1 ?
38.9%

Lookup CC1=CC(C)=[N+]2C1=C(CCCCc1cn(CC(=O)N3CCc4nc(NC(=O)[C@H]5CCN(C#N)C5)sc4C3)nn1)c1c(C)cc(C)n1[B-]2(F)F
36.4%

O=C(CCCCCCNC(=O)c1cnc(N(c2ccccc2)c2ccccc2)nc1)NO ?
81.3%

Entry Cc1nnc2c3ccccc3c(N[C@@H](C)[C@H](c3ccccc3)N(C)C)nn12 please
55.2%

And then Cn1c(=O)[nH]c2cc(N3C(=O)c4cccc5c(CCCO)ccc(c45)C3=O)ccc21 , what is it?
52.8%

Can you check CCOC(=O)c1c(/C(C#N)=C\N)c2ccc(Cl)c(Cl)c2n1C next?
52%

Also CNCCN1CCC(c2cc(CN(C)C(=O)c3cccc(Oc4ccccc4)c3)ccn2)CC1 ?
71.9%

Can you handle CCN(Cc1ccc(Cl)cc1)c1ncc(C(=O)NCCCN2CCCC2=O)c(NC2CCCC2)n1 next?
74.3%

Note, next up: Cn1c(C2(NC(=O)c3ccc(NCC4CCCCC4)nc3)CCC2)nc2ccc(/C=C/C(=O)O)cc21
77.7%

Note, next up: CC(=O)Nc1c(C(C)=O)c(=O)n(C)c2nc(-c3ccc(Cl)cc3Cl)c(-c3ccc(Cl)cc3)cc12
58.3%

Now consider COc1ccc(Cn2ccc3ccc(C(=O)NO)cc32)cc1 and answer again.
89.4%

Could you do the same for CC(C)C(=O)Nc1n[nH]c2cc(-c3cccc(NS(=O)(=O)C4CC4)c3)ccc12 , please?
54.8%
